# Tested on: SEM cells
# assay comment: cell viability relative to DMSO control; higher = less cytotoxic
# recorded conditions: RPMI 5 mM glucose + 10% dialyzed FBS; 48 h; 0.00702 µM
Collected cell viability values appear next to each entry.
Use % as the unit, but write only the number.

In the examples that follow, each entry is paired with its recorded cell viability.
OCc1ccccc1O[C@@H]1O[C@H](CO)[C@@H](O)[C@H](O)[C@H]1O = 118
CCC[C@@H]1C[C@@H](C(=O)N[C@@H]([C@H]2O[C@H](SC)[C@H](O)[C@@H](O)[C@H]2O)[C@@H](C)O)N(C)C1.Cl = 141
C#Cc1cccc(Nc2ncnc3cc(OCCOC)c(OCCO)cc23)c1 = 118
O=C(Cc1cccc(OC(F)(F)F)c1)Nc1ccc(CCCCc2nnc(NC(=O)Cc3ccccn3)s2)nn1 = 108
Cc1cc(Nc2ncc(Cl)c(Nc3ccccc3[S+](=O)([O-])C(C)C)n2)c(OC(C)C)cc1C1CCNCC1 = 104

Field: next molecule
cell viability reported for this molecule COc1cc2nccc(Oc3ccc(NC(=O)Nc4ccc(F)cc4F)c(F)c3)c2cc1OC : 51.1

====

# Test system: SEM cells
# assay comment: cell viability relative to DMSO control; higher = less cytotoxic
# recorded conditions: RPMI 5 mM glucose + 10% FBS; 48 h; 0.0632 µM
observed property: cell viability (%)
Use % as the unit, but write only the number.

In the examples that follow, each entry is paired with its recorded cell viability.
CCCCCCCCCCCC(CC1OC(=O)C1CCCCCC)OC(=O)C(CC(C)C)NC=O (stereo not drawn) = 86.9
CO/N=C(/C(=O)N[C@@H]1C(=O)N2C(C(=O)O)=C(Cn3ccc(=N)n3CCO)CS[C@H]12)c1csc(N)n1 = 130
Cc1ccc(C(C)(O)c2nc3ccccc3s2)c(C)c1 (stereo not drawn) = 107
Nc1ccccc1NC(=O)c1ccc(CNc2nccc(-c3cccnc3)n2)cc1 = 105
COC1=CC=C2Nc3cc(Cl)ccc3C(N=C3C=C(CN4CCCC4)C(=O)C(CN4CCCC4)=C3)=C2N1 = 115
Cc1[nH]c(/C=C2\C(=O)Nc3ccc([S+](=O)([O-])N(C)c4cccc(Cl)c4)cc32)c(C)c1C(=O)N1CCN(C)CC1 = 96.9

Field: next compound
The recorded cell viability with SEM cells for Cc1ccc(-n2nc(C(C)(C)C)cc2NC(=O)Nc2ccc(OCCN3CCOCC3)c3ccccc23)cc1 was 87.1

====

# Test system: P12-Ichikawa
# assay comment: AUC of viability dose-response curve (% viability x log10 dose units); higher = less sensitive
# recorded conditions: RPMI 5 mM glucose + 10% FBS; 48 h
Collected AUC of viability dose-response curve values appear next to each entry.
Just the number, please.

In the examples that follow, each entry is paired with its recorded AUC of viability dose-response curve.
COc1ccc(Cc2nccc3cc(OC)c(OC)cc23)cc1OC = 466
COc1cc(N2CCC(O)CC2)ccc1Nc1cc(Nc2ccccc2[S+](=O)([O-])C(C)C)c2cc[nH]c2n1 = 392
CN(N=O)C(=O)N[C@H]1C(O)OC(CO)[C@@H](O)[C@@H]1O (stereo partly drawn) = 383
COc1cc2c(Nc3ccc(NC(=O)c4ccccc4)cc3)ncnc2cc1OCCCN1CCOCC1 = 390
COc1ccc(CCN2CCN(CCCc3ccccc3)CC2)cc1OC = 472

AUC of viability dose-response curve reported for this molecule O=c1cc(O)c(Cl)c[nH]1 : 395

AUC of viability dose-response curve reported for this molecule C[C@H]1O[C@H](O[C@H]2[C@H](O)[C@@H](O)[C@H](O[C@@H]2CO)O[C@H]3[C@H](O)[C@@H](O)C(O)O[C@@H]3CO)[C@H](O)[C@@H](O)[C@@H]1N[C@H]4\C=C(CO)/[C@@H](O)[C@H](O)[C@H]4O (stereo partly drawn) : 335

AUC of viability dose-response curve reported for this molecule O=C(NCc1ccncc1)C12C[C@H]3C[C@@H](C1)CC(c1ccc(Cl)cc1)(C3)C2 : 439

AUC of viability dose-response curve reported for this molecule CN1CCCN(C(=O)c2cccc(-c3ccc(/C=C4/C(=O)Nc5ccc(Cl)cc54)o3)c2)CC1 : 372

AUC of viability dose-response curve reported for this molecule CN(C)Cc1ccc(-c2nc3cccc4c3n2CCNC4=O)cc1 : 463

AUC of viability dose-response curve reported for this molecule CCC(=O)O[C@@]1([C@@H](C)C[C@H]2[C@@H]3CCC/4=C/C(=O)/C=C\[C@]4(C)[C@@]3(F)[C@@H](O)C[C@]12C)C(=O)CCl : 254

AUC of viability dose-response curve reported for this molecule O=C([O-])Cc1ccccc1Nc1c(Cl)cccc1Cl : 445

AUC of viability dose-response curve reported for this molecule FC(F)(F)c1ccc(Nc2nc3cc(Oc4ccnc(-c5ncc(C(F)(F)F)[nH]5)c4)ccc3[nH]2)cc1 : 460

AUC of viability dose-response curve reported for this molecule COc1cc2nccc(Oc3ccc(NC(=O)Nc4cc(C)on4)c(Cl)c3)c2cc1OC : 453

AUC of viability dose-response curve reported for this molecule O=C1Nc2ccccc2/C1=C1\Nc2ccccc2C1=O : 467

AUC of viability dose-response curve reported for this molecule COc1cc2ncnc(-n3nc(-c4ccccn4)nc3N)c2cc1OC : 436

AUC of viability dose-response curve reported for this molecule C#CCN(C)[C@H](C)Cc1ccccc1 : 413

AUC of viability dose-response curve reported for this molecule C1Cc2[nH]nc(-c3nn[nH]n3)c2C1 : 458
